// data source = PubChem BioAssay (NCI)

Recorded TGI, one value per entry.
system: OVCAR-5 ovarian; assay: NCI tumour cell line growth inhibition, 48 h

See these solved cases before continuing.
INSERT INTO assay_data (molecule, measured_result) VALUES
  ('CCCCCCOP(=O)(OCCCCCC)C(NC(=O)OCC)(C(F)(F)F)C(F)(F)F', '> 100 µM'),
  ('O=C(NCc1ccc(Cn2c(=O)sn(-c3ccccc3)c2=O)cc1)OCc1ccc2c(Br)cc(Br)c(O)c2n1', '2.97 µM'),
  ('CC1(Cl)CCC2(CC(Br)=CC3OC32C)CC1Br (centres undefined)', '> 100 µM');

Next up:
# TGI lookup, item CC[C@@H](C(=O)[C@@H](C)[C@@H](O)[C@H](C)[C@@H]1O[C@@H]([C@@H](CC)C(=O)N(CC)CC)CC[C@@H]1C)C1O[C@]2(C=CC(=O)[C@]3(CC[C@@](C)([C@H]4CC[C@](O)(CC)[C@H](C)O4)O3)O2)[C@H](C)C[C@@H]1C (some centres undefined)
10.1 µM

----------
tested on: TK-10 renal; assay: NCI tumour cell line growth inhibition, 48 h
PARAMETER_MEASURED: log10(TGI) (log10 of the value in µM)
Quick note: numbers are log10 of TGI, with µM as the unit.

INSERT INTO assay_data (smiles_str, measured_result) VALUES
  ('CCCCCCCCCCCCCC[n+]1ccc2c(C)c3c(c(C)c2c1)c1cc(O)ccc1n3CC', 0.19),
  ('O=C(/C=C/c1ccc(O)c(O)c1)c1cc(O)cc(O)c1', 1.60),
  ('Cn1ccnc1C(=O)/C=C/c1ccccc1', 1.28),
  ('C[C@@H](CO)[C@@H]1CCC=C2CC[C@]3(C)[C@H](CC[C@@H]4[C@@]5(C)CCCNC(C)(C)[C@@H]5CC[C@]43C)[C@H]21', 1.39);

Next up:
# log10(TGI) lookup, item COc1cc(O)c(C(=O)/C=C/c2ccc(O)cc2)c(O)c1[C@@H]1C[C@H](CCc2ccc(O)cc2)O[C@H](c2ccc(O)cc2)C1
1.23

----------
system: UACC-62 melanoma; assay: NCI tumour cell line growth inhibition, 48 h
Recorded TGI, one value per entry.
Please state the figure in µM; there is no need to write the unit.

See these solved cases before continuing.
INSERT INTO results (molecule, parameter_measured, unit_abbreviation, measured_result) VALUES
  ('COc1ccc(/C=C2\CCC(CNc3ccc(OC)cc3)C2=O)cc1 (stereo not given)', 'TGI', 'µM', 48),
  ('CSCCCNC(=O)c1csc(-c2csc(C(CNC(=O)OC(C)(C)C)CNC(=O)OC(C)(C)C)n2)n1', 'TGI', 'µM', 40.4),
  ('Cc1c2cnccc2c(C)c2c1c1ccccc1n2CCCCCCNCc1ccccc1', 'TGI', 'µM', 4.16),
  ('Cc1ccc(OC2CC(n3cnc4ncnc(Cl)c43)OC2Oc2ccc(C)cc2)cc1 (stereo not given)', 'TGI', 'µM', 96.7),
  ('O=[N+]([O-])c1cccc(C2ON2C2CCCCC2)c1 (stereo not given)', 'TGI', 'µM', 48);

# TGI lookup, item Cc1c(COc2cc(OCc3cccc(C#N)c3)c(CN3C[C@H](O)C[C@@H]3C(=O)O)cc2Cl)cccc1-c1ccc2c(c1)OCCO2
32.3

# TGI lookup, item CN(C)c1ccc(Nc2cc(-c3cccc(OC(F)(F)F)c3)nc3ccc(N4CCCC4)cc23)cc1
3.29

# TGI lookup, item CN(C)CCNC(=O)c1cccc2c1nc(-c1ccccc1)c1ccccc12
24.4

----------
system: HOP-92 NSCLC; assay: NCI tumour cell line growth inhibition, 48 h
Recorded GI50, one value per entry.

See these solved cases before continuing.
INSERT INTO measurements (compound, measured_result) VALUES
  ('CC[C@@H](C(=O)[C@@H](C)[C@@H](O)[C@H](C)[C@@H]1O[C@@H]([C@@H](CC)C(=O)N(CC)CC)CC[C@@H]1C)C1O[C@]2(C=CC(=O)[C@]3(CC[C@@](C)([C@H]4CC[C@](O)(CC)[C@H](C)O4)O3)O2)[C@H](C)C[C@@H]1C (stereo partly drawn)', '1350 nM'),
  ('C[C@@H](CO)[C@@H]1CCC=C2CC[C@]3(C)[C@H](CC[C@@H]4[C@@]5(C)CCCNC(C)(C)[C@@H]5CC[C@]43C)[C@H]21', '1870 nM');

Next up:
# GI50 lookup, item Cc1cc(N(CCNc2ccnc3cc(Cl)ccc23)Cc2ccco2)nc(Cl)n1
1470 nM

----------
tested on: CCRF-CEM leukemia; experiment: NCI tumour cell line growth inhibition, 48 h
Recorded TGI, one value per entry.

INSERT INTO measurements (compound, parameter_measured, measured_result) VALUES
  ('O=CC(O)C(O)C(O)C(O)COP(=O)(O)Cc1ccccc1 (configuration not stated)', 'TGI', '> 10 µM'),
  ('COC(=O)c1c(N)n[nH]c1N', 'TGI', '> 100 µM'),
  ('Nc1nc(Cl)cc(NCCC2(CO)CCC2)n1', 'TGI', '> 100 µM'),
  ('Cc1cc(C)nc(NS(=O)(=O)c2ccc(Nc3c4ccc(Cl)cc4nc4c(C(=O)Nc5ccc(S(N)(=O)=O)cc5)cccc34)cc2)n1', 'TGI', '> 100 µM'),
  ('O=C(Cn1ccnc1[N+](=O)[O-])c1ccc(F)cc1', 'TGI', '> 100 µM');

Form field: TGI recorded for N#Cc1c(N)sc2c1-c1ccccc1OC2 with CCRF-CEM leukemia (enter value)
36 µM

Form field: TGI recorded for Cc1cccc2c(=O)c3c(sc12)c(NCCNCCO)nc1ccccc13 with CCRF-CEM leukemia (enter value)
3.73 µM

----------
system: MDA-N; test: NCI tumour cell line growth inhibition, 48 h
PARAMETER_MEASURED: TGI

See these solved cases before continuing.
INSERT INTO assay_data (compound, parameter_measured, measured_result) VALUES
  ('Cn1c2ccccc2c2c(=O)[nH]c(=O)[nH]c21', 'TGI', '> 100 µM'),
  ('COc1ccc2c(c1)n([O-])c1ccccc1[n+]2=O', 'TGI', '> 100 µM'),
  ('CC(C)C1=CCC2C(=C1)CCC1C(C)(C(=O)O)CCCC21C (stereo unspecified) (tested in a mixture with another compound)', 'TGI', '> 100 µM'),
  ('CCOC(=O)NC(NC1=NCCS1)(C(=O)OCC)C(F)(F)F (stereo unspecified)', 'TGI', '> 100 µM'),
  ('c1cc(CNCCN2CCNCC2)ccn1', 'TGI', '> 100 µM');

# TGI lookup, item CSCCCNC(=O)c1csc(-c2csc(C(CNC(=O)OC(C)(C)C)CNC(=O)OC(C)(C)C)n2)n1
> 100 µM

# TGI lookup, item CCCCN1C(=O)c2c(-c3sccc3N)sc(-c3sccc3N)c2C1=O
> 34.6 µM

# TGI lookup, item Cc1ccc(O)c(-c2cc(-c3cccc(Cl)c3)c(C#N)c(N)n2)c1
37.8 µM

----------
tested on: HCC-2998 colon; test: NCI tumour cell line growth inhibition, 48 h
PARAMETER_MEASURED: TGI (µM)
Please state the figure in µM; there is no need to write the unit.

See these solved cases before continuing.
INSERT INTO results (compound, measured_result) VALUES
  ('CC1OC(OC2C(O[C@H]3CC[C@@]4(C)C(=CC[C@H]5[C@@H]6C[C@@H]7O[C@]8(CC[C@H](C)CN8)[C@@H](C)[C@@H]7[C@@]6(C)CC[C@@H]54)C3)OC(CO)C(O)C2OC2OC(CO)C(O)C(O)C2O)C(O)C(O)C1O (stereo partly drawn)', 32.2),
  ('O=C(NCc1ccc(Cn2c(=O)sn(-c3ccccc3)c2=O)cc1)OCc1ccc2c(Br)cc(Br)c(O)c2n1', 3.41),
  ('CC(C)CCN=C(N)c1ccc(N2CCN(c3ccc(C(N)=NCCC(C)C)cc3)CC2)cc1', 37.4);

Next up:
# TGI lookup, item CCCCCCCCCCCCCC[S+](C)C
3.49

----------
test system: UACC-62 melanoma; experiment: NCI tumour cell line growth inhibition, 48 h
Recorded TGI, one value per entry.

# TGI lookup, item CC(C)(C)c1cc(C2=NN(c3ccccc3)C(c3ccccc3)C2)cc(C(C)(C)C)c1O (stereo not given)
> 100 µM

# TGI lookup, item CC(C)[Si](OC1=CCC[C@H]2NC(=O)[C@@H](Cc3ccccc3)[C@@]12C)(C(C)C)C(C)C
22.4 µM

# TGI lookup, item CC(C)(C)c1cc2c3c(c1)C(C(F)(F)F)(C(F)(F)F)O[Te]3(C)OC2(C(F)(F)F)C(F)(F)F
> 100 µM

# TGI lookup, item CCOc1ccc(/C=N/[N+](C)(C)C)cc1OCC
> 10 µM

# TGI lookup, item CCCCN1C(=O)c2c(-c3sccc3N)sc(-c3sccc3N)c2C1=O
> 64.6 µM
